targetOfAssay: E3 ubiquitin-protein ligase XIAP (Homo sapiens) (UniProt P98170)
Sequence (P98170 whole entry, looked up): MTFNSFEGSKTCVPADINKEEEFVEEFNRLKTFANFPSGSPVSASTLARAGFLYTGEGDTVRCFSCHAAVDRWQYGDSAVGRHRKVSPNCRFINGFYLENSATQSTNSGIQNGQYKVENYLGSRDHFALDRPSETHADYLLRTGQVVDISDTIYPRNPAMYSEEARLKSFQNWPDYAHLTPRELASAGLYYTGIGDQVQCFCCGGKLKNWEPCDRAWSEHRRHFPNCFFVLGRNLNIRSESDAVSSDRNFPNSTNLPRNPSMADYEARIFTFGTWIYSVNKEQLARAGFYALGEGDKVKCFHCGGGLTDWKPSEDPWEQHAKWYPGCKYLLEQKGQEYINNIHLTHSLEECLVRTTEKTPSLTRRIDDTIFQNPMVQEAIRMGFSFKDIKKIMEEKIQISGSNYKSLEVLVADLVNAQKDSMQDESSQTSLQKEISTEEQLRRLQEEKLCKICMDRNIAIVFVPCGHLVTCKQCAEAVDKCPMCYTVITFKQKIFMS
method: XIAP binders, primary screen, biophysical, small-molecule microarray, fluorescence 635 nm (AID 1181);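 further: score merges 667 nm emission and signal to noise over triplicate slides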
conditionParameters: small-molecule microarray binding, higher = more signal
# binarize composite z-score: threshold -0.1 inclusive, high side Met, low side Not met

CN(C)CCCNC(=O)[C@@H]1c2ccccc2C(=O)N(Cc2ccc(OC(F)(F)F)cc2)[C@H]1c1ccc(CO)cc1 : Not met

Quick check, composite z-score >= -0.1? COc1cc2c(cc1OC)CN(C(=O)[C@@H]1[C@H]3C(=O)O[C@H](c4ccccc4)[C@H](c4ccccc4)N3[C@H](c3ccccc3OCCO)[C@@]13C(=O)Nc1ccc(C#CC4(O)CCCCCC4)cc13)CC2 Not met

Quick check, composite z-score >= -0.1? C=CCN1C(=O)[C@]2(CC=C)N=C(c3ccc(OCCCO)cc3)O[C@@H]2c2ccccc21 Met

Quick check, composite z-score >= -0.1? O=C1O[C@@H](c2ccccc2)[C@@H](c2ccccc2)N2[C@@H](c3ccc(O)cc3)[C@]3(C(=O)Nc4ccc(C#CCCO)cc43)[C@@H](C(=O)NC[C@H](O)c3ccccc3)[C@H]12 Met

Quick check, composite z-score >= -0.1? COC(=O)[C@@]1(Cc2ccccc2)[C@H]2c3cc(C(=O)N4CCCC4)n(Cc4cc(F)cc5c4OCOC5)c3C[C@H]2CN1C(=O)c1ccccc1 Met

Quick check, composite z-score >= -0.1? C=CCN1C(=O)[C@@]2(O[C@@H](CCO)[C@H]([Si](C)(C)c3ccc(OC)cc3)[C@H]2C)c2cc(N3C(=O)c4ccccc4Oc4ccccc43)ccc21 Not met

* * *

Entries and their composite z-score values follow.
method: binders of probe aFSTL3 on microarray, primary screen, stem cell growth factor project, biochemical, small-molecule microarray, fluorescence 635/667 (AID 1064);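 further: measures binding of the biotinylated anti-FSTL3 antibody to printed compounds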
conditionParameters: higher = more signal
Please state the value as a number alone, without comment.

Some entries whose results are on file:
COC(=O)[C@@]1(Cc2ccc(OC)cc2)[C@H]2c3cc(C(=O)N(C)C)n(Cc4ccccc4)c3C[C@H]2CN1C(=O)c1ccccc1 : 0.342
CCC[C@@H]1C[C@@]1(CCC)[C@@H](NP(=O)(c1ccccc1)c1ccccc1)c1ccc(Cl)cc1 : 0.337
COc1ccc([Si](C)(C)[C@H]2[C@H](CC(=O)N3Cc4ccccc4C[C@H]3CO)O[C@@]3(C(=O)N(Cc4cccc(N5CCCCC5=O)c4)c4ccccc43)[C@@H]2C)cc1 : 0.0111
COc1ccc([Si](C)(C)[C@H]2[C@H](CCn3cc(CCO)nn3)O[C@@]3(C(=O)N(Cc4ccc(N5C(=O)c6cccc7cccc5c67)cc4)c4ccccc43)[C@@H]2C)cc1 : -0.619
C=C1C2CC3C(=C4C(CO[C@@H]4[C@H]4CCCN4S(=O)(=O)c4ccccc4[N+](=O)[O-])C4C(=O)N(C)C(=O)C34)CC2C(=O)N1C (some centres undefined) : -0.431
[N-]=[N+]=Nc1ccccc1C[C@]1(C(=O)NCc2ccccc2)N=C(c2ccc(OCCCO)cc2)O[C@H]1c1ccccc1 : 0.0843
CC=CC(O)C1C=CC2C(=O)N(C)C(=O)C2N1Nc1ccc([N+](=O)[O-])cc1[N+](=O)[O-] (centres undefined) : 0.028
O=C1O[C@@H](c2ccccc2)[C@@H](c2ccccc2)N2[C@@H](c3ccccc3OCCO)[C@]3(C(=O)Nc4ccc(C#CCCO)cc43)[C@@H](C(=O)N3CCN(c4ncccn4)CC3)[C@H]12 : -0.132

Pending compound:
Please give measured composite z-score of the following entry: CCOC(=O)C[C@H]1[C@H](OC(=O)c2ccc(C(=O)c3ccccc3)cc2)[C@@H](NC(=O)c2ccc3ccccc3c2)c2cc(OCCCO)ccc2N1C(=O)c1ccccc1 -0.476

* * *

method: splicing luciferase reporter signal modulators, primary screen, spliceosome inhibition project, cell-based, HEK293, splice +/- reporter (AID 1101);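 further: HEK293 cells carrying a splicing-competent luciferase reporter gene; test concentration not given here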
conditionParameters: luminescence, 24 h, higher = more signal, called active from +8 up or from −8 down
measurementName: z-score
Please state the value as a number alone, without comment.

CCCC[C@@H]1C[C@H]1[C@@H](NC(=O)c1cccnc1)c1ccc(-c2ccccc2)cc1 : -4.22
CO[C@H]1O[C@H](CO)[C@@H](OC(=O)Nc2ccc(Oc3ccccc3)cc2)[C@H](OC(=O)Nc2ccccc2-c2ccccc2)[C@@H]1OC(=O)Nc1ccccc1-c1ccccc1 : -1.52
O=C(CS)NCCCCCCNC(=O)[C@@H]1C[C@@H]2C(=O)N3CCC[C@H]3C(=O)N2[C@@H]1c1cccc(OCCO)c1 : -1.77
C=CC[C@@H](OC(=O)Nc1ccc(OC)cc1)c1ccc(OCCO)cc1 : -0.694
C=CCC(OC(C)=O)[C@@H]1[C@@H](N(Cc2cc3ccccc3o2)C(=O)Cc2ccc(F)cc2)c2cc(OCCCO)ccc2N1C(=O)c1ccc2ccccc2n1 (stereo partly specified) : -0.509
O=C1O[C@@H](c2ccccc2)[C@@H](c2ccccc2)N2[C@@H](c3ccccc3OCCO)[C@]3(C(=O)Nc4ccc(C#CC5=CCCCC5)cc43)[C@@H](C(=O)NC[C@H](O)c3ccccc3)[C@H]12 : -1.13
C=CCN1Cc2ccccc2C[C@@]2(N=C(c3ccc(OCCCO)cc3)O[C@H]2c2ccccc2)C1=O : 6.55
C=CC[C@H](OC(=O)Nc1ccc(OC)cc1)c1ccc(O)c2ccccc12 : 3.32
CCOC(=O)C[C@H]1[C@H](OC(=O)Cc2ccc3c(c2)OCO3)[C@@H](NC(=O)C2CCCCC2)c2cc(OCCCO)ccc2N1C(=O)c1ccc2ccccc2n1 : -1.49
Cc1c(NC(=O)/C(C#N)=C/C=C/c2ccc(N(C)C)cc2)c(=O)n(-c2ccccc2)n1C : -0.0455

Please give measured z-score of the following entry: Cc1ccc(C(C)CC(O)C2C=CC3C(=O)N(c4ccccc4)C(=O)C3N2Nc2ccc(C(C)C)cc2)o1 (stereo unspecified) 1.46

Please give measured z-score of the following entry: CC(C)CCC[C@@H](C)[C@H]1CC[C@@]2(C)C3=C(CC[C@]12C)[C@@]1(C)CC[C@H](OC(=O)c2ccc(Br)cc2)C(C)(C)C1CC3 (stereo partly specified) -1.13

Please give measured z-score of the following entry: COC(=O)[C@H](Cc1ccccc1)N1CC(/C=C/C2CC2)=C[C@@H]1[C@@H](O)Cc1ccccc1 3.96

Please give measured z-score of the following entry: CCC[C@@H]1C[C@@]1(CCC)[C@@H](NP(=O)(c1ccccc1)c1ccccc1)c1ccc(Cl)cc1 -2.26

Please give measured z-score of the following entry: C=C(CCCC)C(=O)CC[C@@H](OC(=O)c1cccnc1)c1ccccc1OCCO 4.97

Please give measured z-score of the following entry: COc1cc(CO)cc(I)c1O[C@H]1C=C(C(=O)NCCO)C[C@@H](N(Cc2ccc(F)cc2)C(=O)C2CCCO2)[C@@H]1O (stereo partly specified) -0.0727

* * *

method: cell viability in Huh7 cells, primary screen, cytotoxicity control for HCV replication inhibitor project, CellTiter-Glo luminescence, basal, 48 h (AID 1143);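 further: Huh7 hepatoma cells carrying a hepatitis C replication reporter with no stimulus; test concentration not given here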
conditionParameters: Huh7 HCV replicon, higher = more signal, called active from +8 up or from −8 down
measurementName: z-score
Please state the value as a number alone, without comment.

Some entries whose results are on file:
COc1ccc([Si](C)(C)[C@@H]2[C@@H](CCn3cc([C@H](O)c4ccccc4)nn3)O[C@]3(C(=O)N(Cc4ccc(N5CCOC5=O)cc4)c4ccccc43)[C@H]2C)cc1 : -3.81
COc1ccc(C(O)C2C=CC3C(=O)N(c4ccccc4)C(=O)C3N2Nc2ccccc2)cc1OCc1ccccc1 (stereo not given) : 0.197
C=CCN1C(=O)[C@@]2(O[C@@H](CCO)[C@H]([Si](C)(C)c3ccc(OC)cc3)[C@H]2C)c2cc(N3C(=O)c4ccccc4Oc4ccccc43)ccc21 : -7.93

Please give measured z-score of the following entry: CC(C)(C)OC(=O)CC[C@]1(C(=O)O)N=C(c2ccc(OCCCO)cc2)O[C@H]1c1ccccc1 -1.48

Please give measured z-score of the following entry: CC(=O)N1Cc2ccccc2C[C@]2(N=C(c3ccc(OCCCO)cc3)O[C@@H]2c2ccccc2)C1=O -3.38

Please give measured z-score of the following entry: C=C(CCCC)/C(=C/C[C@@H](OC(=O)c1ccncc1)c1cccc(OCCO)c1)c1cnc2ccccc2c1 -3.08

Please give measured z-score of the following entry: COc1ccccc1CN1C(=O)c2ccccc2[C@](Cc2ccccc2I)(C(=O)NC(C)C)[C@@H]1c1ccc(CO)cc1 -3.63

Please give measured z-score of the following entry: CC=CC(O)C1C=CC2C(=O)N(c3ccccc3)C(=O)C2N1Nc1ccccc1 (stereo not given) 0.973

Please give measured z-score of the following entry: COCCOC(=O)N1C(=O)[C@@]2(c3ccccc31)[C@H](C(=O)N1CCN(c3ncccn3)CC1)[C@H]1C(=O)O[C@H](c3ccccc3)[C@H](c3ccccc3)N1[C@@H]2c1ccc(OCCO)cc1 -1.12

Please give measured z-score of the following entry: C=CCN1Cc2ccccc2C[C@@]2(N=C(c3ccc(OCCCO)cc3)O[C@H]2c2ccccc2)C1=O -5.03

Please give measured z-score of the following entry: CN1C(=O)[C@@]2(CCS(=O)(=O)c3ccccc3)N=C(c3ccc(OCCCO)cc3)O[C@H]2c2ccccc21 -4.49

Please give measured z-score of the following entry: Cc1ccc(S[C@]2(C(=O)NCc3ccccc3)CC(=O)N(C(C)C)[C@@H]2c2ccc(CO)cc2I)cc1 -1.11

Please give measured z-score of the following entry: C=C(COC)/C(=C/C[C@@H](OC(=O)c1ccncc1)c1ccc(OCCO)cc1)c1cnc2ccccc2c1 -3.25

Please give measured z-score of the following entry: CC(C)(C)OC(=O)CC[C@]1(C(=O)N2CCOCC2)N=C(c2ccc(OCCCO)cc2)O[C@H]1c1ccccc1 -1.37

Please give measured z-score of the following entry: CCCCN1CC=CC23O[C@@H]4/C=C\CCC(C)OC(=O)C4[C@H]2C(=O)N(CCCCCCO)[C@@H]3C1=O (stereo not given in full) 0.745

Please give measured z-score of the following entry: CN1C(=O)C2C=CC(C(O)Cc3ccccc3)N(N(c3ccccc3)c3ccccc3)C2C1=O (stereo not given) 0.443

Please give measured z-score of the following entry: COc1ccc(NN2C(C(O)c3ccccn3)C=CC3C(=O)N(C4CCCCC4)C(=O)C32)cc1 (stereo not given) -0.924

Please give measured z-score of the following entry: COc1cc(CO)cc(I)c1O[C@H]1C=C(C(=O)NCCO)C[C@@H](NCc2ccccc2F)[C@@H]1O -0.466

Please give measured z-score of the following entry: CCN(CC)c1ccc(N2CC=CC34O[C@@H]5/C=C\CCC(C)OC(=O)C5[C@H]3C(=O)N(CCO)[C@@H]4C2=O)cc1 (stereo not given in full) -1.33

Please give measured z-score of the following entry: C=C(COC)/C(=C/C[C@@H](OC(=O)c1ccncc1)c1ccc(CO)o1)c1cnc2ccccc2c1 0.173

Please give measured z-score of the following entry: O=C1NC(=O)C2C1C=CC(C(O)c1cc(C(F)(F)F)cc(C(F)(F)F)c1)N2Nc1ccc(Cl)cc1Cl (stereo not given) -1.32

Please give measured z-score of the following entry: COc1c(C)cc(-c2cc3c(c(Cc4ccccc4)n2)[Si](C(C)C)(C(C)C)OC3)cc1C 0.428

Please give measured z-score of the following entry: CC(=O)NCCCC[C@@H]1NC(=O)[C@@H]2C[C@H](C(=O)O)[C@H](c3ccc(O)cc3)N2C1=O 0.454

All figures here come from PubChem BioAssay.
